- System: TK-10
- method_notes: GI50 of drug in presence of dasatinib; higher = less potent
- conditions: treatment: drug + dasatinib (fixed dose, not stated); 5 days
For each of the compounds below, state its GI50 of drug.
Numbers only, in nM.

Solved entries:
>>> observed_value("FC(F)(F)c1ccc(/C=C/c2nc(COc3ccc(CCCCn4ccnn4)cc3)co2)cc1 [Mubritinib (TAK 165)] + Cc1nc(Nc2ncc(C(=O)Nc3c(C)cccc3Cl)s2)cc(N2CCN(CCO)CC2)n1")
146
>>> observed_value("Nc1ncnc2c1c(-c1cccc(OCc3ccccc3)c1)cn2[C@H]1C[C@H](CN2CCCC2)C1 [NVP-ADW742] + Cc1nc(Nc2ncc(C(=O)Nc3c(C)cccc3Cl)s2)cc(N2CCN(CCO)CC2)n1")
3390
>>> observed_value("CCN1CCN(Cc2ccc(-c3cc4c(N[C@H](C)c5ccccc5)ncnc4[nH]3)cc2)CC1 [AEE788 (NVP-AEE788)] + Cc1nc(Nc2ncc(C(=O)Nc3c(C)cccc3Cl)s2)cc(N2CCN(CCO)CC2)n1")
305

Now for a further compound.
Enquiry: Give the value of GI50 of drug reported for the following: O=C(NOCC(O)CO)c1cc(Br)c(F)c(F)c1Nc1ccc(I)cc1F (configuration not stated) + Cc1nc(Nc2ncc(C(=O)Nc3c(C)cccc3Cl)s2)cc(N2CCN(CCO)CC2)n1
Return: 2540

---

- System: A498
- method_notes: AUC of dose-response viability curve, drug alone (arbitrary (AUC of normalised viability)); higher = less growth inhibition
- conditions: treatment: drug alone; 5 days
Labelling field: enter criterion met if recorded AUC of dose-response viability curve is less than 4. Enter criterion not met if it equals or exceeds that cut-off.

Take a look at these entries with their results.
>>> label_class("O=C(c1ccc(/C=C/c2n[nH]c3ccccc23)cc1)N1CCNCC1 [KW 2449]")
"criterion met"
>>> label_class("CO[C@H]1C[C@@H]2CC[C@@H](C)[C@@](O)(O2)C(=O)C(=O)N2CCCC[C@H]2C(=O)O[C@H]([C@H](C)C[C@@H]2CC[C@@H](O)[C@H](OC)C2)CC(=O)[C@H](C)/C=C(\\C)[C@@H](O)[C@@H](OC)C(=O)[C@H](C)C[C@H](C)/C=C/C=C/C=C/1C [Rapamycin (Sirolimus)]")
"criterion met"
>>> label_class("O=c1cc(N2CCOCC2)oc2c(-c3cccc4c3sc3ccccc34)cccc12")
"criterion met"

Enquiry: Is it true that AUC of dose-response viability curve reported for O=C1Nc2ccccc2/C1=C1/Nc2ccccc2C1=O [Indirubin] is less than 4?
Return: criterion met

Enquiry: Is it true that AUC of dose-response viability curve reported for COc1cc2ncnc(Nc3ccc(F)c(Cl)c3)c2cc1NC(=O)/C=C/CN1CCCCC1 is less than 4?
Return: criterion met

---

- System: 786-O
- method_notes: minimum viability across doses, drug alone, relative to DMSO (fraction); higher = less growth inhibition
- conditions: treatment: drug alone; 5 days
readout: minimum viability across doses
Answers are plain numbers.

>>> observed_value("CC1(COc2ccc3c(c2)ncn3-c2ccc3cccc(N4CCC(N)CC4)c3n2)COC1")
0.00547
>>> observed_value("Nc1cccc(-c2cc3c(Oc4cccc(O)c4)ncnc3[nH]2)c1")
0.154
>>> observed_value("CCc1cccc(CC)c1NC(=O)N1Cc2[nH]nc(NC(=O)c3ccc(N4CCN(C)CC4)cc3)c2C1")
0.0395
>>> observed_value("COc1cc(Nc2c(C#N)cnc3cc(OCCCN4CCN(C)CC4)c(OC)cc23)c(Cl)cc1Cl [Bosutinib (SKI-606)]")
0.0159
>>> observed_value("O=C(Nc1cccc(Nc2ncc(Br)c(NCCc3cnc[nH]3)n2)c1)N1CCCC1")
0.0508

Now for a further molecule.
Enquiry: Give the value of minimum viability across doses reported for the following: COC(=O)Nc1ccc(-c2nc(N3CCOCC3)c3cnn(C4CCN(Cc5cccnc5)CC4)c3n2)cc1
Return: 0.441

---

- Test system: A498
- method_notes: minimum viability across doses, drug + dasatinib, relative to DMSO (fraction); higher = less growth inhibition
- conditions: treatment: drug + dasatinib (fixed dose, not stated); 5 days
Labelling field: enter fulfilled if recorded minimum viability across doses is less than 0.4. Enter not fulfilled if it equals or exceeds that cut-off.

>>> label_class("C#Cc1cccc(Nc2ncnc3cc(OCCOC)c(OCCO)cc23)c1.Cl [OSI-420 (Desmethyl Erlotinib)] + Cc1nc(Nc2ncc(C(=O)Nc3c(C)cccc3Cl)s2)cc(N2CCN(CCO)CC2)n1 [dasatinib]")
"not fulfilled"
>>> label_class("C#Cc1cccc(Nc2ncnc3cc(OCCOC)c(OCCO)cc23)c1 + Cc1nc(Nc2ncc(C(=O)Nc3c(C)cccc3Cl)s2)cc(N2CCN(CCO)CC2)n1 [dasatinib]")
"not fulfilled"
>>> label_class("COc1cc2c(Nc3ccc(NC(=O)c4ccccc4)cc3)ncnc2cc1OCCCN1CCOCC1 + Cc1nc(Nc2ncc(C(=O)Nc3c(C)cccc3Cl)s2)cc(N2CCN(CCO)CC2)n1 [dasatinib]")
"fulfilled"
>>> label_class("CS(=O)(=O)N1CCN(Cc2cc3nc(-c4cccc5[nH]ncc45)nc(N4CCOCC4)c3s2)CC1 [GDC-0941] + Cc1nc(Nc2ncc(C(=O)Nc3c(C)cccc3Cl)s2)cc(N2CCN(CCO)CC2)n1 [dasatinib]")
"fulfilled"
>>> label_class("O=C(NOC[C@H](O)CO)c1ccc(F)c(F)c1Nc1ccc(I)cc1F + Cc1nc(Nc2ncc(C(=O)Nc3c(C)cccc3Cl)s2)cc(N2CCN(CCO)CC2)n1 [dasatinib]")
"fulfilled"

Enquiry: Is it true that minimum viability across doses reported for CC(=O)c1c(C)c2cnc(Nc3ccc(N4CCNCC4)cn3)nc2n(C2CCCC2)c1=O.Cl + Cc1nc(Nc2ncc(C(=O)Nc3c(C)cccc3Cl)s2)cc(N2CCN(CCO)CC2)n1 [dasatinib] is less than 0.4?
Return: not fulfilled

Enquiry: Is it true that minimum viability across doses reported for C[C@]1(O)C[C@@H](c2nc(-c3ccc4ccc(-c5ccccc5)nc4c3)c3c(N)nccn32)C1 [Linsitinib (OSI-906)] + Cc1nc(Nc2ncc(C(=O)Nc3c(C)cccc3Cl)s2)cc(N2CCN(CCO)CC2)n1 [dasatinib] is less than 0.4?
Return: not fulfilled

Enquiry: Is it true that minimum viability across doses reported for CCCCOc1c(C(=O)c2c(F)cc(C)cc2F)cnc2[nH]ncc12 + Cc1nc(Nc2ncc(C(=O)Nc3c(C)cccc3Cl)s2)cc(N2CCN(CCO)CC2)n1 [dasatinib] is less than 0.4?
Return: not fulfilled

Enquiry: Is it true that minimum viability across doses reported for CC(C)CC(=O)Nc1n[nH]c2c1CN(C(=O)C1CCN(C)CC1)C2(C)C + Cc1nc(Nc2ncc(C(=O)Nc3c(C)cccc3Cl)s2)cc(N2CCN(CCO)CC2)n1 [dasatinib] is less than 0.4?
Return: fulfilled

Enquiry: Is it true that minimum viability across doses reported for N#C/C(=C\c1ccc(O)c(O)c1)C(=O)NCc1ccccc1 [AG-490] + Cc1nc(Nc2ncc(C(=O)Nc3c(C)cccc3Cl)s2)cc(N2CCN(CCO)CC2)n1 [dasatinib] is less than 0.4?
Return: not fulfilled

Enquiry: Is it true that minimum viability across doses reported for Cc1nc(N)sc1-c1ccnc(Nc2ccc(N3CCOCC3)cc2)n1 [CYC116] + Cc1nc(Nc2ncc(C(=O)Nc3c(C)cccc3Cl)s2)cc(N2CCN(CCO)CC2)n1 [dasatinib] is less than 0.4?
Return: fulfilled

Enquiry: Is it true that minimum viability across doses reported for COc1cc2nccc(Oc3ccc(NC(=O)NC4CC4)c(Cl)c3)c2cc1C(N)=O [E7080 (Lenvatinib)] + Cc1nc(Nc2ncc(C(=O)Nc3c(C)cccc3Cl)s2)cc(N2CCN(CCO)CC2)n1 [dasatinib] is less than 0.4?
Return: not fulfilled

---

- System: 769-P
- method_notes: AUC of dose-response viability curve, drug + dasatinib, normalised to DMSO (arbitrary (AUC of normalised viability)); higher = less growth inhibition
- conditions: treatment: drug + dasatinib (fixed dose, not stated); 5 days
readout: AUC of dose-response viability curve
One number for each entry.

Solved entries:
>>> observed_value("CS(=O)c1ccc(-c2nc(-c3ccc(F)cc3)c(-c3ccncc3)[nH]2)cc1 (stereo unspecified) + Cc1nc(Nc2ncc(C(=O)Nc3c(C)cccc3Cl)s2)cc(N2CCN(CCO)CC2)n1")
2.31
>>> observed_value("c1ccc2c(CCNc3ccc(Nc4ccncc4)cc3)c[nH]c2c1 + Cc1nc(Nc2ncc(C(=O)Nc3c(C)cccc3Cl)s2)cc(N2CCN(CCO)CC2)n1")
1.69
>>> observed_value("Cc1nc(Nc2ncc(C(=O)Nc3c(C)cccc3Cl)s2)cc(N2CCN(CCO)CC2)n1 + Cc1nc(Nc2ncc(C(=O)Nc3c(C)cccc3Cl)s2)cc(N2CCN(CCO)CC2)n1")
1.22

Batch request: AUC of dose-response viability curve for each of the following compounds.
1. Cn1c(=O)c(F)c(Nc2ccc(I)cc2F)c2c(=O)n(C[C@@H](O)CO)cnc21 [TAK-733] + Cc1nc(Nc2ncc(C(=O)Nc3c(C)cccc3Cl)s2)cc(N2CCN(CCO)CC2)n1
2. NCC(=O)Nc1ccc(-n2nc(C(F)(F)F)cc2-c2ccc3c(ccc4ccccc43)c2)cc1 + Cc1nc(Nc2ncc(C(=O)Nc3c(C)cccc3Cl)s2)cc(N2CCN(CCO)CC2)n1
3. NC(=O)c1ccc(N(C(N)=O)c2c(F)cccc2F)nc1-c1ccc(F)cc1F [VX-702] + Cc1nc(Nc2ncc(C(=O)Nc3c(C)cccc3Cl)s2)cc(N2CCN(CCO)CC2)n1
4. Cc1cc(C(C)Nc2ccccc2)c2nc(N3CCOCC3)cc(=O)n2c1 (stereo unspecified) [TGX-221] + Cc1nc(Nc2ncc(C(=O)Nc3c(C)cccc3Cl)s2)cc(N2CCN(CCO)CC2)n1
5. O=C(NC[C@H](O)CO)c1ccncc1Nc1ccc(I)cc1F + Cc1nc(Nc2ncc(C(=O)Nc3c(C)cccc3Cl)s2)cc(N2CCN(CCO)CC2)n1
6. COc1cc2nccc(Oc3ccc(NC(=O)C4(C(=O)Nc5ccc(F)cc5)CC4)cc3)c2cc1OC [XL-184 free base (Cabozantinib)] + Cc1nc(Nc2ncc(C(=O)Nc3c(C)cccc3Cl)s2)cc(N2CCN(CCO)CC2)n1
7. Cc1cccc(-c2nc(C(C)(C)C)[nH]c2-c2ccc3nccnc3c2)n1 + Cc1nc(Nc2ncc(C(=O)Nc3c(C)cccc3Cl)s2)cc(N2CCN(CCO)CC2)n1
8. CC1(C)CCC(CN2CCN(c3ccc(C(=O)NS(=O)(=O)c4ccc(NCC5CCOCC5)c([N+](=O)[O-])c4)c(Oc4cnc5[nH]ccc5c4)c3)CC2)=C(c2ccc(Cl)cc2)C1 [ABT-199 (GDC-0199 )] + Cc1nc(Nc2ncc(C(=O)Nc3c(C)cccc3Cl)s2)cc(N2CCN(CCO)CC2)n1

Return:
1. 1.73
2. 2.22
3. 2.4
4. 2.01
5. 1.81
6. 2.07
7. 2.34
8. 2.58
